B1: library; numbered along this chain (parent)
chain: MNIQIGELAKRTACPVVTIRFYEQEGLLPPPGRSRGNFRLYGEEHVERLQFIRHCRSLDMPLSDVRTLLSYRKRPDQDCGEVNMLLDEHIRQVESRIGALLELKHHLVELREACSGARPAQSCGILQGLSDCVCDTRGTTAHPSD

variants of: B1; experiment: sfGFP reporter fluorescence (15 h) (µM FITC); higher = stronger transcriptional activation; conditions: library round: Round 1; ligand: 30 µM Zn
Measured sfGFP reporter fluorescence, listed per entry for reference.
Just the number, please.

     mutation_label                property_name  endpoint_value
0  V82I E112I D131C  sfGFP reporter fluorescence          0.0669

Ask: Identify measured sfGFP reporter fluorescence corresponding to E94F K104V G128H
Result: 0.0833
